Literature survey of IC50 (system: UniProtKB P06239).

* COc1cc2ncnc(Nc3cccc(Cl)c3F)c2cc1CN(C)[C@H](C)C(N)=O | > 10 µM
* O=C(NCc1ccccc1)c1cc2cc(O)c(O)cc2cn1 | > 1000 µM

Here is the next item to consider.
Enquiry: // lookup IC50 for Fc1cccc(Cn2ncc3cc(Nc4ncnn5ccc(COC[C@@H]6CNCCO6)c45)ccc32)c1
Return: > 5 µM

----------
Literature survey of pIC50 (system: Tyrosine-protein kinase Lck (Homo sapiens)).
pIC50: −log10 of the molar value.

# example entries with known answers
• O=[N+]([O-])c1ccccc1Nc1nc2ccccc2n2cncc12 = < 4.90
• CC(=O)Oc1ccc2c(c1)C(=O)c1ccccc1C2=O = < 2.52
• Cc1cccc(Cl)c1Nc1nc2ccccc2n1-c1cc(N2CCOCC2)ncn1 = < 5.60
• Cc1cc(Nc2nc(Nc3ccccc3S(=O)(=O)C(C)C)c3c(C)[nH]nc3n2)c(OC(C)C)cc1C1CCN(C)CC1 = 5.37
• Brc1ccc(N/N=C/c2ccncc2)cc1 = < 2.54

Enquiry: // lookup pIC50 for C=CC(=O)c1ccc2ccccc2c1
Return: < 5.00

----------
Literature survey of IC50 (system: Tyrosine-protein kinase Lck (Homo sapiens)).
Output spec: scalar in µM, unitless text.

• COc1cc2nccc(Oc3ccc4c(c3)OCCN4C(=O)Nc3ccccc3Cl)c2cc1OC = 2.2

Enquiry: Give Tyrosine-protein kinase Lck (Homo sapiens) IC50 for O=C(/C=C/c1ccc(O)c(O)c1/C=C/c1ccc(O)c(O)c1)O[C@H](Cc1ccc(O)c(O)c1)C(=O)O
Return: 23.5

Enquiry: Give Tyrosine-protein kinase Lck (Homo sapiens) IC50 for C[N+](C)(C)[C@H](Cc1cc(I)c(O)c(I)c1)C(=O)[O-]
Return: 25

Enquiry: Give Tyrosine-protein kinase Lck (Homo sapiens) IC50 for CCc1nc(O)c2c(ccc3nc(Nc4c(Cl)cccc4Cl)n(C)c32)c1C
Return: 0.78

Enquiry: Give Tyrosine-protein kinase Lck (Homo sapiens) IC50 for Cc1nc(O)c2c(ccc3nc(Nc4c(Cl)cccc4Cl)n(C)c32)c1CCCN1CCOCC1
Return: 0.11

----------
Literature survey of IC50 (system: Tyrosine-protein kinase Lck (Homo sapiens, UniProt P06239)).
Sequence (P06239 whole entry): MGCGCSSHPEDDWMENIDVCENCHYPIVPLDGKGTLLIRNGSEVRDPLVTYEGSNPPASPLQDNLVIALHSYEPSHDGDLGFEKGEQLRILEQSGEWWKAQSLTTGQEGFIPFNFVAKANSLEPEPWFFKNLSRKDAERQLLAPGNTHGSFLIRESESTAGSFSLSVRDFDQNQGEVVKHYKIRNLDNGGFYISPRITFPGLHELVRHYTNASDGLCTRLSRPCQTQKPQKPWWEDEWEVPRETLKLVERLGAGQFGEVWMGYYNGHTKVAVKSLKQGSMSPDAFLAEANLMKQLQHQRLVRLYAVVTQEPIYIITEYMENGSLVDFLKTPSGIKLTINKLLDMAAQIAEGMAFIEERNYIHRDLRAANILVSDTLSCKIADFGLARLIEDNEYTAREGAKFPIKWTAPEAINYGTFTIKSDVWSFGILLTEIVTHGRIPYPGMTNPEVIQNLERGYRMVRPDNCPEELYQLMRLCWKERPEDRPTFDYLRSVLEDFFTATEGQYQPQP

- COc1cc2ncnc(Nc3cccc(Cl)c3F)c2cc1CN(C)C1(C(N)=O)CCN(C)CC1: > 10 µM
- CN1CCN(C[C@@H](NC(=O)C[C@H]2CNC(=O)c3cc(-c4cccc(Cl)c4)cn32)C2CCCCC2)CC1: > 10 µM
- COc1cc(NC(=O)Nc2cnc(Nc3ccc(N4CCOCC4)cc3)nc2Oc2ccc(C(F)(F)F)cc2)cc(OC)c1: > 100 µM
- N=c1oc2ccc(O)cc2cc1C(=O)Nc1cccc(O)c1: > 33.8 µM
- Brc1ccc(N/N=C/c2ccccn2)cc1: > 2900 µM
- C[N+](C)(C)[C@H](Cc1cc(Br)c(O)c(I)c1)C(=O)[O-]: > 117 µM
- Cc1ccc(C(=O)NC2CC2)cc1-c1ccc2c(N3CCOC[C@@H]3C)nncc2c1: > 10 µM
- CC(=O)Nc1ccc2c(c1)/C(=C/c1cc3c([nH]1)CCN(C(=O)N1CCOCC1)C3)C(=O)N2: 0.33 µM

Enquiry: Give Tyrosine-protein kinase Lck (Homo sapiens, UniProt P06239) IC50 for O=C(c1ccc(Nc2nc(C3CC3)cn3c(-c4cn[nH]c4)cnc23)cc1Cl)N1C[C@H]2CC[C@@H](C1)N2
Return: 0.365 µM

Enquiry: Give Tyrosine-protein kinase Lck (Homo sapiens, UniProt P06239) IC50 for CCN(CC)c1ccc(Nc2cc(N(Cc3ccccc3)C(=O)Nc3ccccc3Cl)ncn2)cc1
Return: > 10 µM

Enquiry: Give Tyrosine-protein kinase Lck (Homo sapiens, UniProt P06239) IC50 for CC(C)c1nc(-c2ccc(F)c(NS(=O)(=O)c3c(F)cccc3F)c2)c(-c2ccnc(Nc3ccc(N4CCOCC4)nc3)n2)s1
Return: 0.01 µM

----------
Literature survey of IC50 (system: Tyrosine-protein kinase Lck (Homo sapiens, UniProt P06239)).

# example entries with known answers
- N#CCCN(CCC#N)CCCN(CCCN(CCC#N)CCC#N)CCCN(CCCN(CCCN(CCC#N)CCC#N)CCCN(CCC#N)CCC#N)CCN1C(=O)C(c2ccccc2)=C(c2ccccc2)C1=O: > 50 µM
- CC(C)CCCOc1ccc2c(c1)Nc1c(C(N)=O)c(-c3ccc(Oc4ccccc4)cc3)nn1CC2: > 0.1 µM
- COc1cc(-c2cc(=O)c3ccc(O)c(O)c3o2)cc(OC)c1O[Si](C)(C)C(C)(C)C: > 1800 µM
- COc1cc2ncnc(Nc3cccc(Cl)c3F)c2cc1CN1CC[C@H](C(N)=O)C1: > 10 µM

Enquiry: Give Tyrosine-protein kinase Lck (Homo sapiens, UniProt P06239) IC50 for COc1ccc2c(c1)/C(=C/c1[nH]c(C)c(C(=O)NCCCN)c1C)C(=O)N2
Return: < 1 µM

Enquiry: Give Tyrosine-protein kinase Lck (Homo sapiens, UniProt P06239) IC50 for COc1cc(Nc2nc(NCc3ccc(/C=C/C(=O)O)cc3)n3ccnc3c2C(N)=O)cc(OC)c1
Return: > 10 µM

Enquiry: Give Tyrosine-protein kinase Lck (Homo sapiens, UniProt P06239) IC50 for COc1cc2nccc(Oc3ccc4c(c3)OCCN4C(N)=O)c2cc1OC
Return: > 4 µM

Enquiry: Give Tyrosine-protein kinase Lck (Homo sapiens, UniProt P06239) IC50 for CC(C)c1nnc2ccc(-c3ocnc3-c3ccc(F)cc3Cl)cn12
Return: > 10 µM

Enquiry: Give Tyrosine-protein kinase Lck (Homo sapiens, UniProt P06239) IC50 for CC(=O)N1CCN(C(=O)c2cccc(CSc3cnc(NC(=O)c4ccc(N(C)C)cc4)s3)c2)CC1
Return: > 25 µM

Enquiry: Give Tyrosine-protein kinase Lck (Homo sapiens, UniProt P06239) IC50 for COc1ccc(/C=C\c2cc(OC)c(OC)c(OC)c2)cc1NC(=O)CCC(=O)N[C@@H](CCCNC(=N)N)C(=O)O
Return: > 10 µM

Enquiry: Give Tyrosine-protein kinase Lck (Homo sapiens, UniProt P06239) IC50 for CCN(CCO)Cc1cc(Nc2nc(C)cn3c(-c4cn[nH]c4)cnc23)sn1
Return: < 0.001 µM

Enquiry: Give Tyrosine-protein kinase Lck (Homo sapiens, UniProt P06239) IC50 for Brc1ccccc1Nc1nc2ccccc2n2ccnc12
Return: > 50 µM

Enquiry: Give Tyrosine-protein kinase Lck (Homo sapiens, UniProt P06239) IC50 for FC(F)(F)CNc1nc(Nc2ccc3cn[nH]c3c2)nc2ccoc12
Return: 7.79 µM

Enquiry: Give Tyrosine-protein kinase Lck (Homo sapiens, UniProt P06239) IC50 for O=C(Cc1ccc2ccccc2c1)Nc1cc(C2CC2)n[nH]1
Return: > 10 µM

----------
Literature survey of IC50 (system: Tyrosine-protein kinase Lck (Homo sapiens, UniProt P06239)).
Output spec: scalar in µM, unitless text.

# example entries with known answers
• NC(=O)c1nnc2ccccc2c1N = 38
• Cc1ccc(NC(=O)c2cc(F)cc(C(F)(F)F)c2)cc1C(=O)Nc1cnc(Nc2ccc(N3CCN(C)CC3)cc2)nc1 = 0.0003
• COc1cc(-c2cc(=O)c3cc(O)ccc3o2)cc(OC)c1OC = 60.9

Enquiry: Give Tyrosine-protein kinase Lck (Homo sapiens, UniProt P06239) IC50 for c1ccc(-c2oc3nccc(NC[C@@H]4CCCO4)c3c2-c2ccccc2)cc1
Return: 2.1

Enquiry: Give Tyrosine-protein kinase Lck (Homo sapiens, UniProt P06239) IC50 for Oc1ccc(/C=C/c2ccc(O)c(O)c2)cc1O
Return: 74

Enquiry: Give Tyrosine-protein kinase Lck (Homo sapiens, UniProt P06239) IC50 for COCCOc1ccnc(C#Cc2ccc3c4c(oc3c2)C(C)(C)c2cc(OCCN3CCOCC3)ccc2C4=O)c1
Return: 0.82

Enquiry: Give Tyrosine-protein kinase Lck (Homo sapiens, UniProt P06239) IC50 for CNc1cc(N(CCCN(C)C)C(=O)Nc2c(Cl)cccc2Cl)ncn1
Return: 2.35

Enquiry: Give Tyrosine-protein kinase Lck (Homo sapiens, UniProt P06239) IC50 for CNc1cc(-c2cccnc2Nc2c(C)ccc3c(Nc4ccc5sc(C)nc5c4)nccc23)ncn1
Return: 0.023

Enquiry: Give Tyrosine-protein kinase Lck (Homo sapiens, UniProt P06239) IC50 for C[C@@H](c1ccc2ccccc2c1)[C@H]1NC(=O)[C@H](NC(=O)[C@@H](N)Cc2ccc(O)cc2)C(C)(C)SSC[C@@H](C(=O)N[C@@H](CCCCN)C(=O)N[C@@H](CCCNC(=N)N)C(N)=O)NC(=O)[C@H](Cc2ccccc2)NC(=O)[C@H](CO)NC(=O)CNC1=O
Return: 260

----------
Literature survey of pIC50 (system: Tyrosine-protein kinase Lck (Homo sapiens, UniProt P06239)).
pIC50 here is simply -log10 of the concentration when that concentration is written in mol/L.

# example entries with known answers
* CCC(O)(CC)c1cc(OCCN2CCOCC2)c2cc(-c3n[nH]c4ccsc34)[nH]c2c1 | 6.79
* COc1ccc2c(c1)/C(=C/c1cc3c([nH]1)CCN(C(C)=O)C3)C(=O)N2 | 5.22
* CCN(CC)CCOc1ccc(Nc2cc(N(C)C(=O)Nc3c(Cl)cccc3C(F)(F)F)ncn2)cc1 | 7.02
* Cc1ccc(NC(=O)c2cccc(C(F)(F)F)c2)cc1Nc1nc2ccccc2n1-c1cc(NCCCCN(C)C)ncn1 | 8.30

Enquiry: Give Tyrosine-protein kinase Lck (Homo sapiens, UniProt P06239) pIC50 for Cc1ccc(NC(=O)c2cccc(C(F)(F)F)c2)cc1Nc1nc2ccccc2n1-c1cc(N[C@H]2CC[C@H](N)CC2)ncn1
Return: 7.15

Enquiry: Give Tyrosine-protein kinase Lck (Homo sapiens, UniProt P06239) pIC50 for COc1nc(NCCN2CCOCC2)ncc1C(=O)Nc1cc(C(=O)Nc2cccc(C(F)(F)F)c2)ccc1C
Return: 7.66
